Origin of the recorded values: patent US6767903B1

# Tested on: human prostate cancer cell line LNCaP
# assayNotes: Antiproliferation test with the human prostate cancer cell line (LNCaP)
# Assay type: cell-based
# cond: Homo sapiens, 168 h; LNCaP cells, growth stimulated by 0.1 nM R1881, 7 days, MTT readout; read-out: Antiandrogeneity IC50 in the presence of 0.1 nM of R1881
Consider the following compounds; for each one, report its pIC50.
Answers are plain numbers, as −log10 of the molar value.

[
  {
    "compound": "C[C@]12CCC(=O)C=C1C[C@@H](CCCCCCCCCO)[C@@H]1[C@@H]2CC[C@@]2(C)[C@H]1CC[C@]2(C)O",
    "pIC50": 7.40
  }
]

What the record says about CC(O)(CS(=O)(=O)c1ccc(F)cc1)C(=O)Nc1ccc(C#N)c(C(F)(F)F)c1 (centres unmarked) : pIC50 is 6.36
